TEST SYSTEM: human GcgR (Homo sapiens, UniProt P47871)
Sequence (P47871 26-477): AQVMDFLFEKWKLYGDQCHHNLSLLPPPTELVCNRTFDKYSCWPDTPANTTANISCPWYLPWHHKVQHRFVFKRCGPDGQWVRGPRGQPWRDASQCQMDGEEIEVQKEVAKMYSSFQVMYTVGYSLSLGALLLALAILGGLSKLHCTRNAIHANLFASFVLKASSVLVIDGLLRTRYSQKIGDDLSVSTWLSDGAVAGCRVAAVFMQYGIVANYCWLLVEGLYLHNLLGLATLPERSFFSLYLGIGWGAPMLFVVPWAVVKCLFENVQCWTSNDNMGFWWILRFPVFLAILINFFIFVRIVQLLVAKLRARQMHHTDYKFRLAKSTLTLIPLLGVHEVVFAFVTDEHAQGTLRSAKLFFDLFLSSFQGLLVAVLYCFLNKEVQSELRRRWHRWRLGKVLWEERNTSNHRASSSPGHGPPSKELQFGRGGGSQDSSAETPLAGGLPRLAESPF
ASSAY INFO: Functional cAMP activity in the presence of 1% HSA
Assay type: cell-based
CONDITION DESCRIPTION: read-out: cAMP Rel EC50, hGcgR
Starred links: 1 amine or outer side, 2 acyl side, 3 side chain; linkers in the order of their positions; H or OH if unused. Non-standard residues stand in square brackets, D forms with d. Groups on a side chain read outwards from the residue. *: point of attachment. C18 diacid = O=C(O)CCCCCCCCCCCCCCCCC(=O)*; αMePhe(2-F) = C[C@](N)(Cc1ccccc1F)C(=O)O; γGlu = O=C(O)[C@H](CCC(=O)[*:2])N[*:1]; αMe4Pal = C[C@](N)(Cc1ccncc1)C(=O)O; 4Pal = N[C@@H](Cc1ccncc1)C(=O)O; αMeL = CC(C)C[C@](C)(N)C(=O)O; αMeS = C[C@](N)(CO)C(=O)O; Orn = NCCC[C@H](N)C(=O)O; AEEA = NCCOCCOCC(=O)O; Aib = CC(C)(N)C(=O)O
PROPERTY NAME: EC50 (nM)
Only the number, expressed in nM, is required.

SUBSTANCE	TEST SYSTEM	EC50 (nM)
H-Y[Aib]QGTFTSD[4Pal]S[Orn][αMeL]LD[Orn]K([γGlu-γGlu-C18 diacid])AQ[αMe4Pal]AFIEYLIAGGPSSGEPPPSGE-NH2 [Example 983]	human GcgR (Homo sapiens, UniProt P47871)	576
H-Y[Aib]QGTFTSDFS[Orn][αMeL]LDKK([AEEA-AEEA-γGlu-C18 diacid])AQ[Aib]AFIEYLLE[dA]GPSSGEPPPSGT-NH2 [Example 156]	human GcgR (Homo sapiens, UniProt P47871)	1520
H-Y[Aib]QGTFTSD[4Pal]SK[αMeL]LDKK([γGlu-γGlu-C18 diacid])AQ[Aib]AFIEYLIE[Aib]GPSSGAPPPSGSE-NH2 [Example 904]	human GcgR (Homo sapiens, UniProt P47871)	1330

For the next question, use this substance.
// field: EC50; key: H-Y[Aib]QGT[αMePhe(2-F)]TSD[4Pal][αMeS]ILLD[Orn]K([γGlu-γGlu-C18 diacid])AQ[Aib][Orn]FI[dE]YLIEGGPSSGEPPPSGTE-NH2 [Example 531] ; value = 465

----------
TEST SYSTEM: hGLP-1R (Homo sapiens, UniProt P43220)
Sequence (P43220 24-463): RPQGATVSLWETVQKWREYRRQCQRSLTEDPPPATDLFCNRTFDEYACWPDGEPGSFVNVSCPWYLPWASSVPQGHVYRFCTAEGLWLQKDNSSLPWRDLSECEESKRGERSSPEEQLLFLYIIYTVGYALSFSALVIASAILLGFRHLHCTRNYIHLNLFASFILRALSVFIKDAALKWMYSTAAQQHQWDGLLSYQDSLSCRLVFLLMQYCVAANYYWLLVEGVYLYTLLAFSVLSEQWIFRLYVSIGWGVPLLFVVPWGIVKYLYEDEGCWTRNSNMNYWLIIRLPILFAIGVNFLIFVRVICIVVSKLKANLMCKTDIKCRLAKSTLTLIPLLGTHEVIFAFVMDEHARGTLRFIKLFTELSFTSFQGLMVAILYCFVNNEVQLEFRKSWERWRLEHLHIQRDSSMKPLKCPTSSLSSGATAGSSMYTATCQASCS
Sequence (P32121 whole entry partner): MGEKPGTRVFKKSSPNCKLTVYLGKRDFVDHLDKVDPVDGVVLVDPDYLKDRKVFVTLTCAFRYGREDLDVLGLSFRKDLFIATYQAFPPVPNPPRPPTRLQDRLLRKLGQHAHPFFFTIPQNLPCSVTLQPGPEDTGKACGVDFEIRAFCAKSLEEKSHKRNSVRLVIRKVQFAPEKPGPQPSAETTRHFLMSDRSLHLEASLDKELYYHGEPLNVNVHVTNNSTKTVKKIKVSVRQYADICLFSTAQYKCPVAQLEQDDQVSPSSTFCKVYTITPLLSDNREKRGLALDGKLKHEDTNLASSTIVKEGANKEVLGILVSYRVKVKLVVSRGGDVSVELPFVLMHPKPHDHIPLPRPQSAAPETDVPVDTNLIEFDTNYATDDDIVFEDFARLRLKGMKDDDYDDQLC
ASSAY INFO: GLP-1R CHO cell β-arrestin recruitment assay;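 further: luminescence read after 90 min peptide exposure at 37 °C and a further 60 min with detection reagent at room temperature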
Type: cell-based
Design: host or cells: CHO-K1 (PathHunter, assay-ready frozen cells)
CONDITION DESCRIPTION: normalized to GLP-1(7-36) as maximum control
Starred links: 1 amine or outer side, 2 acyl side, 3 side chain; linkers in the order of their positions; H or OH if unused. Non-standard residues stand in square brackets, D forms with d. Groups on a side chain read outwards from the residue. *: point of attachment. C20 diacid = O=C(O)CCCCCCCCCCCCCCCCCCC(=O)*; Phe(4-CN) = N#Cc1ccc(C[C@H](N)C(=O)O)cc1; αMePhe(2-F) = C[C@](N)(Cc1ccccc1F)C(=O)O; γGlu = O=C(O)[C@H](CCC(=O)[*:2])N[*:1]; εLys = N[C@@H](CCCCN[*:1])C(=O)[*:2]; NMeY = CN[C@@H](Cc1ccc(O)cc1)C(=O)O; αMeF = C[C@](N)(Cc1ccccc1)C(=O)O; αMeL = CC(C)C[C@](C)(N)C(=O)O; AEEA = NCCOCCOCC(=O)O; Aib = CC(C)(N)C(=O)O
Label key: Y means % Stimulation Max under 40%; N means % Stimulation Max of 40% or more.

Completed entries (count: 7):
SUBSTANCE	TEST SYSTEM	GROUP
H-Y[Aib]QGTFTSDFSK[αMeL]LDKK([AEEA-γGlu-C20 diacid])AQ[Aib]AFIEYLLAGGPSSGEPPPSEE-NH2 [Example 4]	hGLP-1R (Homo sapiens, UniProt P43220)	Y
H-Y[Aib]QGTFTSDYSK[αMeL]LDKK([AEEA-γGlu-C20 diacid])AQQAFVQWLIEGGPSSGEPPPSEG-NH2 [Example 315]	hGLP-1R (Homo sapiens, UniProt P43220)	Y
H-Y[Aib]QGTFTSDYSI[αMeL]LDKQAAK([εLys-εLys-γGlu-C20 diacid])QFVEWLLA[Aib]GPSSGEPPPSEG-NH2 [Example 329]	hGLP-1R (Homo sapiens, UniProt P43220)	N
H-Y[Aib]QGT[αMePhe(2-F)]TSDYSKLLDKQAQK([AEEA-γGlu-C20 diacid])QFIEYLIEGGPSSGEPPPSEG-NH2 [Example 309]	hGLP-1R (Homo sapiens, UniProt P43220)	N
H-[NMeY][Aib]QGT[αMeF]TSDYSILLDKQAAK([AEEA-AEEA-γGlu-C20 diacid])AFVQWLIAGGPSSGEPPPSEG-NH2 [Example 301]	hGLP-1R (Homo sapiens, UniProt P43220)	N
H-H[Aib]QGT[αMePhe(2-F)]TSDYSILLDKK([AEEA-γGlu-C20 diacid])AA[Aib]AFIEYLIEAGPSSGEPPPSEG-NH2 [Example 298]	hGLP-1R (Homo sapiens, UniProt P43220)	N
H-Y[Aib]QGTFTSDYSI[αMeL]LDKK([AEEA-AEEA-γGlu-C20 diacid])AA[Aib]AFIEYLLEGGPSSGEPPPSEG-NH2 [Example 294]	hGLP-1R (Homo sapiens, UniProt P43220)	Y

State whether 40% exceeds % Stimulation Max recorded for H-Y[Aib]QGT[αMePhe(2-F)]TSD[Phe(4-CN)]SILLDKQAQK([AEEA-AEEA-γGlu-C20 diacid])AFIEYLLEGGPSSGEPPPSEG-NH2 [Example 321] . N

----------
TEST SYSTEM: hGIPR (Homo sapiens)
Sequence (P48546 22-466): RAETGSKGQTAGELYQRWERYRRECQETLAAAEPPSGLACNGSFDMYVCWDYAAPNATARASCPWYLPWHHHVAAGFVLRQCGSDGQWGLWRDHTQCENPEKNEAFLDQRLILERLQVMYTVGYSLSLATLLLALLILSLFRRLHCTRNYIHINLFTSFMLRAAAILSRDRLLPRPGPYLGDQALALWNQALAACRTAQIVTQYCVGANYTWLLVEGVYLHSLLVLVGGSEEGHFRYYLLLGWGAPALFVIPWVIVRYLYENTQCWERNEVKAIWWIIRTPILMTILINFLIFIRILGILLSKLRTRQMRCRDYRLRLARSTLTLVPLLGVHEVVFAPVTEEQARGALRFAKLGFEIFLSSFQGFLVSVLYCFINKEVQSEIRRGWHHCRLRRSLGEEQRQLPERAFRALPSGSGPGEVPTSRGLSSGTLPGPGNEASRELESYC
ASSAY INFO: Functional cAMP activation in the presence of 0.1% casein (no HSA);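 further: intracellular cAMP rise after 30 min at 37 °C read by HTRF against a standard curve, scaled between buffer alone (0%) and top control ligand concentration (100%), four-parameter fit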
Type: cell-based
CONDITION DESCRIPTION: read-out: Relative cAMP EC50, hGIPR
Starred links: 1 amine or outer side, 2 acyl side, 3 side chain; linkers in the order of their positions; H or OH if unused. Non-standard residues stand in square brackets, D forms with d. Groups on a side chain read outwards from the residue. No end group written: not given here. *: point of attachment. C18 diacid = O=C(O)CCCCCCCCCCCCCCCCC(=O)*; αMePhe(2-F) = C[C@](N)(Cc1ccccc1F)C(=O)O; γGlu = O=C(O)[C@H](CCC(=O)[*:2])N[*:1]; αMe4Pal = C[C@](N)(Cc1ccncc1)C(=O)O; αMeY = C[C@](N)(Cc1ccc(O)cc1)C(=O)O; 4Pal = N[C@@H](Cc1ccncc1)C(=O)O; αMeL = CC(C)C[C@](C)(N)C(=O)O; αMeS = C[C@](N)(CO)C(=O)O; Orn = NCCC[C@H](N)C(=O)O; AEEA = NCCOCCOCC(=O)O; Aib = CC(C)(N)C(=O)O
Below, each of the substances is paired with its reported EC50 value.
Return type: number; implicit unit nM.

# annotated cases, reported EC50 shown
SUBSTANCE	EC50 / nM
Y[Aib]QGT[αMePhe(2-F)]TSD[4Pal][αMeS]I[αMeL]LD[Orn]K([γGlu-γGlu-C18 diacid])AQ[Aib][Orn]FI[dE][αMeY]LSEGGPSSGEPPPSGSEE-NH2 [Example 569]	0.199
H-Y[Aib]QGT[αMePhe(2-F)]TSD[4Pal][αMeS]I[αMeL]LD[Orn]K([AEEA-γGlu-C18 diacid])AQ[αMe4Pal]EFI[dE][αMeY]LVEGGPSSGEPPPSGE-NH2 [Example 750]	0.00784
H-Y[Aib]QGT[αMePhe(2-F)]TSD[4Pal]SILLDKK([γGlu-γGlu-C18 diacid])AQ[Aib]AFIE[4Pal]LEEGGPSSGAPPPSGTE-NH2 [Example 550]	0.0876
H-Y[Aib]QGT[αMePhe(2-F)]TSD[4Pal]SI[αMeL]LD[Orn]K([γGlu-γGlu-C18 diacid])AQ[αMe4Pal][Orn]FI[dE][αMeY]LIEGGPSSGEPPPEGE-NH2 [Example 683]	0.00798
H-Y[Aib]QGT[αMePhe(2-F)]TSD[4Pal][αMeS]I[αMeL]LD[Orn]K([γGlu-γGlu-C18 diacid])AQ[Aib]NFI[dE][αMeY]LQEGGPSSGEPPPEGTGE-NH2 [Example 527]	0.0386
H-Y[Aib]QGT[αMePhe(2-F)]TSD[4Pal]SI[αMeL]LD[Orn]K([AEEA-γGlu-C18 diacid])AQ[αMe4Pal]EFI[dE][αMeY]LLEGGPSSGAPPPSGE-NH2 [Example 615]	0.00825

EC50 reading for H-Y[Aib]QGT[αMePhe(2-F)]TSD[4Pal][αMeS]I[αMeL]LD[Orn]K([AEEA-AEEA-γGlu-C18 diacid])AQ[Aib][Orn]FI[dE][αMeY]LIEGGPSSGEPPPSEG-NH2 [Example 490] : 0.0159

Entry H-Y[Aib]QGT[αMePhe(2-F)]TSD[4Pal]SI[αMeL]LD[Orn]K([γGlu-γGlu-C18 diacid])AQ[αMe4Pal][Orn]FI[dE][αMeY]LIEGGPSSGEPPPSGE-NH2 [Example 682] , EC50 reported as 0.00661

The value of EC50 measured for the substance H-Y[Aib]QGT[αMePhe(2-F)]TSD[4Pal]SI[αMeL]LD[Orn]K([AEEA-γGlu-C18 diacid])AQ[αMe4Pal][Orn]FI[dE][αMeY]LIEGGPSSGEPPPESE-NH2 [Example 677] turned out to be 0.0111

The substance listed as H-Y[Aib]QGT[αMePhe(2-F)]TSD[4Pal][αMeS]I[αMeL]LD[Orn]K([γGlu-γGlu-C18 diacid])AQ[Aib]NFI[dE][αMeY]LIEGGPSSGEPEPSEG-NH2 [Example 473] shows EC50 equal to 0.0101
